# assay.system: MMP-9 (Homo sapiens, UniProt P14780)
# Sequence (P14780 94-707): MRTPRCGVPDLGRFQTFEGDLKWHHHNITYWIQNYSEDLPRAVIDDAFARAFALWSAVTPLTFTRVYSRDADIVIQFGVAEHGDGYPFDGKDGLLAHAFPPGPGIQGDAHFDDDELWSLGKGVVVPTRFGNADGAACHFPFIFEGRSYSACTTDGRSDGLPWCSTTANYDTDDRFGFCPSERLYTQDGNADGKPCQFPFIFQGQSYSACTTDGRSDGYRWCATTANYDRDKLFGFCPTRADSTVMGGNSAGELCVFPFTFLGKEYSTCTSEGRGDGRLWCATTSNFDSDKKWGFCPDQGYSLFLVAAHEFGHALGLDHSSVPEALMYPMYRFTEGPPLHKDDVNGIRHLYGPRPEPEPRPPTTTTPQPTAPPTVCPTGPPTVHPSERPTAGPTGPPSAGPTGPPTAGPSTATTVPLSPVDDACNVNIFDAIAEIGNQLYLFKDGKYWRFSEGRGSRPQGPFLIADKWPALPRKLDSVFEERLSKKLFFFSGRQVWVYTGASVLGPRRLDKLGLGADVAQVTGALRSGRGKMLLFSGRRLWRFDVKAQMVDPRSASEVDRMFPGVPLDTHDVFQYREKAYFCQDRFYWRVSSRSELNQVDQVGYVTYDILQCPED
# assay.name: MMP-9 inhibition (thiopeptide or fluorescent peptide substrate)
# Format: biochemical
# conditions.used: read-out: MMP-9 IC50
The label is YES for IC50 below 9 nM and NO for IC50 equal to or exceeding 9 nM.

COc1ccc(S(=O)(=O)N(Cc2cccnc2)c2c(C(=O)NO)cnc3c(Cc4ccccc4)cccc23)cc1 [Example 38]; YES
CN(c1c(C(=O)NO)cnc2ccc(I)cc12)S(=O)(=O)c1ccc(Oc2ccncc2)cc1 [Example 32]; YES
COc1ccc(S(=O)(=O)N(Cc2ccccc2)c2c(C(=O)NO)cnc3ccc(C(F)(F)F)cc23)cc1 [Example 15]; NO
COc1ccc(S(=O)(=O)N(Cc2ccccc2)c2c(C(=O)NO)cnc3cc(C(F)(F)F)ccc23)cc1 [Example 11]; NO
COc1ccc(S(=O)(=O)N(Cc2cccnc2)c2c(C(=O)NO)cnc3snc(C)c23)cc1 [Example 86]; YES
COc1ccc(S(=O)(=O)N(Cc2ccccc2)c2c(C(=O)NO)cnc3ccc([N+](=O)[O-])cc23)cc1 [Example 30]; NO

Task: IC50 under 9 nM? Item: COc1ccc(S(=O)(=O)N(Cc2cccnc2)c2c(C(=O)NO)cnc3cc(C(F)(F)F)ccc23)cc1 [Example 16]
Result: YES

Task: Further, for COc1ccc(S(=O)(=O)N(Cc2ccccc2)c2c(C(=O)NO)cnc3cc(Br)ccc23)cc1 [Example 14] ?
Result: YES

Task: Further, for COc1ccc(S(=O)(=O)N(Cc2cccnc2)c2c(C(=O)NO)cnc3c(I)cccc23)cc1 [Example 39] ?
Result: YES

Task: Further, for CN(c1c(C(=O)NO)cnc2c1c(-c1ccccc1)nn2C)S(=O)(=O)c1ccc(Oc2ccncc2)cc1 [Example 93] ?
Result: NO

Task: Further, for COc1ccc(S(=O)(=O)N(Cc2ccccc2)c2c(C(=O)NO)cnc3c(C(C)C)cccc23)cc1 [Example 20] ?
Result: YES

Task: Further, for COc1ccc(S(=O)(=O)N(Cc2ccccc2)c2c(C(=O)NO)cnc3c2c(C)nn3C)cc1 [Example 52] ?
Result: YES

----------
// endpoint IC50 / system TACE (Homo sapiens)
Please respond with the number in µM and leave the unit unwritten.

Some solved entries appear below for comparison.
COc1ccc(S(=O)(=O)N(Cc2ccccc2)c2c(C(=O)NO)cnc3c2c(C)nn3C)cc1 [Example 52]; 0.236
COc1ccc(S(=O)(=O)N(Cc2ccccc2)c2c(C(=O)NO)cnc3c(C(C)C)cccc23)cc1 [Example 20]; 0.589
CCc1cccc2c(N(Cc3ccccc3)S(=O)(=O)c3ccc(OC)cc3)c(C(=O)NO)cnc12 [Example 19]; 0.314

Now look at this entry.
Task: What IC50 value was documented for this compound, COc1ccc(S(=O)(=O)N(Cc2cccnc2)c2c(C(=O)NO)cnc3c(I)cccc23)cc1 [Example 39] ?
Result: 0.053

----------
melting point listing for selected molecules.
Where a name gives a salt, the structure may show the parent alone.

COc1ccc(S(=O)(=O)N(Cc2cccnc2)c2c(C(=O)NO)cnc3c2c(C)nn3C)cc1 [Example 60]; 196 to 198 °C
Cc1nsc2ncc(C(=O)NO)c(N(C)S(=O)(=O)c3ccc(Oc4ccncc4)cc3)c12 [Example 92]; 146 °C (dec.)
Cc1noc2ncc(C(=O)NO)c(N(C)S(=O)(=O)c3ccc(Oc4ccncc4)cc3)c12 (as salt: hydrochloride) [Example 94]; 170 °C (dec.)
COc1ccc(S(=O)(=O)N(Cc2cccnc2)c2c(C(=O)NO)cnc3onc(C)c23)cc1 (as salt: salt) [Example 87]; 212 to 215 °C
Cc1nn(C)c2ncc(C(=O)NO)c(N(C)S(=O)(=O)c3ccc(Oc4ccncc4)cc3)c12 (as salt: hydrochloride) [91(HC1)]; 147 °C (dec.)
COc1ccc(S(=O)(=O)N(Cc2cccnc2)c2c(C(=O)NO)cnc3snc(C)c23)cc1 (as salt: salt) [Example 86]; 224 °C (dec.)
CN(c1c(C(=O)NO)cnc2c1c(-c1ccccc1)nn2C)S(=O)(=O)c1ccc(Oc2ccncc2)cc1 (as salt: hydrochloride) [Example 93]; 195 °C (dec.)

Task: What melting point value was documented for this molecule, COc1ccc(S(=O)(=O)N(Cc2cccnc2)c2c(C(=O)NO)cnc3cc(C)nn23)cc1 (as salt: salt) [Example 88] ?
Result: 170 °C (dec.)

Each recorded value in this set is attributed to patent US6534491B2.
